test system: A. baumannii FSAb-065; test: Antimicrobial Susceptibility Test (CLSI), Test Example 2; type: cell-based; design: unit not given here; details: Table 4; strain produces OXA-2, VIM-2
Measured antimicrobial susceptibility, A. baumannii FSAb-065 by item
Reply: number alone, nothing else.

C[C@@H](O)[C@H]1C(=O)N2C(C(=O)O)=C(CN(C)CCNC(=O)c3ccc(OC(=O)C(C)(C)C)c(OC(=O)C(C)(C)C)c3Cl)[C@H](C)[C@H]12: 8
C[C@@H](O)[C@H]1C(=O)N2C(C(=O)O)=C(CN3C[C@H](NC(=O)c4ccc(O)c(O)c4Cl)[C@@H](O)C3)[C@H](C)[C@H]12: 0.5
C[C@@H](O)[C@H]1C(=O)N2C(C(=O)O)=C(CN(C)CCNC(=O)c3cccc(O)c3F)[C@H](C)[C@H]12: 32
C[C@@H](O)[C@H]1C(=O)N2C(C(=O)O)=C(CN3CC(NC(=O)c4ccc(O)c(O)c4Cl)C3)[C@H](C)[C@H]12: 0.25

Recall and state the measured antimicrobial susceptibility, A. baumannii FSAb-065 for C[C@@H](O)[C@H]1C(=O)N2C(C(=O)O)=C(CN(C)CCNC(=O)c3cccc(O)c3Cl)[C@H](C)[C@H]12 .
32

Specify antimicrobial susceptibility, A. baumannii FSAb-065 for C[C@@H](O)[C@H]1C(=O)N2C(C(=O)O)=C(CN(C)CC(=O)NCc3cc(=O)c(O)cn3O)[C@H](C)[C@H]12 and stop.
4

Quick one: give measured antimicrobial susceptibility, A. baumannii FSAb-065 for C[C@@H](O)[C@H]1C(=O)N2C(C(=O)O)=C(CN(C)CCNC(=O)c3ccccc3Cl)[C@H](C)[C@H]12
16

State its antimicrobial susceptibility, A. baumannii FSAb-065 for this compound: C[C@@H](O)[C@H]1C(=O)N2C(C(=O)O)=C(CN3CCC(C(=O)NCc4ccc(O)c(O)c4Cl)C3)[C@H](C)[C@H]12 (stereo partly drawn)
4

Return antimicrobial susceptibility, A. baumannii FSAb-065 for the following compound: C[C@@H](O)[C@H]1C(=O)N2C(C(=O)O)=C(CN3CCCC3CNC(=O)c3ccc(O)c(O)c3Cl)[C@H](C)[C@H]12 (stereo partly drawn) [Compound 35]
2

Item C[C@@H](O)[C@H]1C(=O)N2C(C(=O)O)=C(CN(C)CC(=O)NCCNC(=O)c3ccc(O)c(O)c3Cl)[C@H](C)[C@H]12 : provide antimicrobial susceptibility, A. baumannii FSAb-065
8

Dear colleague, please send me the reported antimicrobial susceptibility, A. baumannii FSAb-065 for C[C@@H](O)[C@H]1C(=O)N2C(C(=O)O)=C(CN(C)CCNC(=O)c3cc(O)c(O)c(F)c3)[C@H](C)[C@H]12 when you can.
2

Assign antimicrobial susceptibility, A. baumannii FSAb-065 to the following record: C[C@@H](O)[C@H]1C(=O)N2C(C(=O)O)=C(CN(C)CCNC(=O)c3ccc(O)c(O)c3F)[C@H](C)[C@H]12
2
